# system: Beta-3 adrenergic receptor (Homo sapiens, UniProt P13945)
# Sequence (P13945 whole entry): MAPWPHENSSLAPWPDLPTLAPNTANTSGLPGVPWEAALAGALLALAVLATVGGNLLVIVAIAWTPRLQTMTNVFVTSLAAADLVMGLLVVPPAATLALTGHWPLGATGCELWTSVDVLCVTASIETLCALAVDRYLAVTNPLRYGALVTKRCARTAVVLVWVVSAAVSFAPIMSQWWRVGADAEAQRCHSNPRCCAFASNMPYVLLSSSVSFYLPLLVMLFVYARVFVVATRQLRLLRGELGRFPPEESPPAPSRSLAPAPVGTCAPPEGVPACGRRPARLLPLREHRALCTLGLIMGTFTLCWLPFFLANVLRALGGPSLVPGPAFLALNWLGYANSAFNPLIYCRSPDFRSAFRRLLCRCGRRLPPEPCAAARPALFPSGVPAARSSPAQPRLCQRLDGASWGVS
# protocolText: In vitro efficacy at human beta-3 adrenergic receptor.
endpointLabel: EC50 (nM)

(1) CCCCCCCCc1csc(N2CCc3ccc(N/C(=N/c4ccc(CCNC[C@H](O)c5cccnc5)cc4)NC#N)cc32)n1
(2) N#CN=C(Nc1ccc2c(c1)CCN2c1nc(-c2ccc(OC(F)(F)F)cc2)cs1)Nc1ccc2cc(CCNC[C@H](O)c3cccnc3)ccc2c1
// query Of the two listed items, 1 and 2 , which carries the larger EC50 figure? Refer to your chosen item by its label in the answer.
// result 1

(1) N#CN=C(Nc1ccc(CCNC[C@H](O)c2cccnc2)cc1)Nc1cccc2ccccc12
(2) N#CN=C(Nc1ccc(CCNC[C@H](O)c2cccnc2)cc1)Nc1ccc2c(c1)CCN2c1nc(-c2ccc(OC(F)(F)F)cc2)cs1
// query Please indicate which item has the smaller measured EC50: 1 versus 2 Refer to your chosen item by its label in the answer.
// result 2
(2: 13 nM, 1: 42 nM)

(a) CCCCCCCCc1csc(N2CCc3c(N/C(=N/c4ccc(CCNC[C@H](O)c5cccnc5)cc4)NC#N)cccc32)n1
(b) N#CN/C(=N\c1cc(Cl)cc(Cl)c1)Nc1ccc(CCNC[C@H](O)c2cccnc2)cc1
(c) CCCCCCCCc1csc(N2CCc3cc(S(=O)(=O)Nc4ccc(CCNC[C@H](O)c5cccnc5)cc4)ccc32)n1
(d) O=[N+]([O-])/C=C(\Nc1ccc(CCNC[C@H](O)c2cccnc2)cc1)Nc1cc(Cl)cc(Cl)c1
// query Ordering criterion: EC50; begin with the maximum. Answer by writing out the labels in the requested order.
// result b, d, a, c
(b: 89 nM, d: 35 nM, a: 13 nM, c: 0.93 nM)

----------
# system: Beta-3 adrenergic receptor (Homo sapiens)
# protocolText: In vitro efficacy at human beta-3 adrenergic receptor.
endpointLabel: pEC50
Note on units: pEC50 is unitless, being -log10 of a concentration expressed in mol/L.

O=[N+]([O-])/C=C(\Nc1ccc(CCNC[C@H](O)c2cccnc2)cc1)Nc1ccc2ccccc2c1
6.74
O=[N+]([O-])/C=C(\Nc1ccc(CCNC[C@H](O)c2cccnc2)cc1)Nc1cccc(Oc2ccccc2)c1
6.92

// query // fetch pEC50; item: N#CN=C(Nc1ccc(CCNC[C@H](O)c2cccnc2)cc1)Nc1cccc(F)c1 ; system: Beta-3 adrenergic receptor (Homo sapiens)
// result 7.00

// query // fetch pEC50; item: N#CN=C(Nc1ccc(CCNC[C@H](O)c2cccnc2)cc1)Nc1cccc(I)c1 ; system: Beta-3 adrenergic receptor (Homo sapiens)
// result 7.23

Entry source: ChEMBL document CHEMBL1134823
